# IC50 per entry
- TARGET_OR_TEST_SYSTEM: recombinant CETP (rCETP) (Homo sapiens, UniProt P11597)
- Sequence (P11597 18-493): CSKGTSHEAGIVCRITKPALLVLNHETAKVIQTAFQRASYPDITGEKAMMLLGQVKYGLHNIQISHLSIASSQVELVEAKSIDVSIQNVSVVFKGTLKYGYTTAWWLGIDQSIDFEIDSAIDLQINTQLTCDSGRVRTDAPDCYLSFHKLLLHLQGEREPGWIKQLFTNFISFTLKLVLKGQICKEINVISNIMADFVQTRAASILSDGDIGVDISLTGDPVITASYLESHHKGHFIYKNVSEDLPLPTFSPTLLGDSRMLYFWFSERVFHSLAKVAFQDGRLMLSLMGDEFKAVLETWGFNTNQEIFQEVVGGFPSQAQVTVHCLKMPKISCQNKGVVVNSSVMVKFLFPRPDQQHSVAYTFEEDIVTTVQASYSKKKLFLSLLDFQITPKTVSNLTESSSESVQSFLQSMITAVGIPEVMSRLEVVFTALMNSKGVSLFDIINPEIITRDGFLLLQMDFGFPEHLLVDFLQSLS
- TEST_DESCRIPTION: RTA assay using recombinant CETP (2% RTA)
- Format: biochemical
- STUDY_CONDITIONS: RTA assay in 2% human serum; read-out: IC50
QUANTITY: IC50 (nM)

COMPOUND: COC(=O)CC(C)(C)c1ccc(OC)c(-c2ccc(N3CCC3)nc2CN2C(=O)O[C@H](c3cc(F)c(F)c(F)c3)[C@@H]2C)c1 [Example 32]
QUANTITY: IC50
EXPERIMENTAL_RESULT: 107
//
COMPOUND: COc1ccc(CCC(=O)O)cc1-c1ccc(N2CCC2)nc1CN1C(=O)O[C@H](c2cc(F)cc(F)c2)[C@@H]1C [Example 82]
QUANTITY: IC50
EXPERIMENTAL_RESULT: 484
//
COMPOUND: COC(=O)c1ccc(-c2ccc(OC)c(-c3ccc(N4CCC4)nc3CN3C(=O)O[C@H](c4cc(C(F)(F)F)cc(C(F)(F)F)c4)[C@@H]3C)c2)s1 [Example 48]
QUANTITY: IC50
EXPERIMENTAL_RESULT: 65
//
COMPOUND: C[C@H]1[C@@H](c2cc(C(F)(F)F)cc(C(F)(F)F)c2)OC(=O)N1Cc1nc(N2CCC2)ncc1-c1cc([C@H]2CC[C@H](C(=O)O)CC2)ccc1Cl [Example 173]
QUANTITY: IC50
EXPERIMENTAL_RESULT: 21
//
COMPOUND: COc1ccc(CCC(=O)O)cc1-c1c(C)cc(N2CCC2)nc1CN1C(=O)O[C@H](c2cc(C(F)(F)F)cc(C(F)(F)F)c2)[C@@H]1C [Example 61]
QUANTITY: IC50
EXPERIMENTAL_RESULT: 5
//
COMPOUND: COc1cc(F)c(-c2ccc(C(=O)O)cc2C)cc1-c1ccc(N2CCC2)nc1CN1C(=O)O[C@H](c2cc(F)c(F)c(F)c2)[C@@H]1C [Example 102]
QUANTITY: IC50
EXPERIMENTAL_RESULT: 8

---

- TARGET_OR_TEST_SYSTEM: recombinant CETP (rCETP) (Homo sapiens, UniProt P11597)
- TEST_DESCRIPTION: RTA assay using recombinant CETP (2% RTA)
- Format: biochemical
- STUDY_CONDITIONS: RTA assay in 2% human serum; read-out: IC50
Define the label as yes (1) when IC50 is strictly less than 20 nM and as no (0) in all remaining cases.

SMILES_DATA: CCOC(=O)[C@@H]1C[C@H]1c1ccc(OC)c(-c2ccc(N3CCC3)nc2CN2C(=O)O[C@H](c3cccc(C)c3)[C@@H]2C)c1
GROUP_LABEL: no (0)

SMILES_DATA: COC(=O)c1ccc(-c2ccc(OC)c(-c3ccc(N4CCC4)nc3CN3C(=O)O[C@H](c4cc(C)cc(C)c4)[C@@H]3C)c2)c(C)c1
GROUP_LABEL: no (0)

SMILES_DATA: COc1ccc([C@H]2CC[C@H](C(N)=O)CC2)cc1-c1ccc(N2CCC2)nc1CN1C(=O)O[C@H](c2cccc(C(F)(F)F)c2)[C@@H]1C
GROUP_LABEL: no (0)

SMILES_DATA: COc1ccc(-c2sc(C(=O)O)cc2C)cc1-c1ccc(N2CCC2)nc1CN1C(=O)O[C@H](c2cc(C(F)(F)F)cc(C(F)(F)F)c2)[C@@H]1C
GROUP_LABEL: yes (1)

SMILES_DATA: COc1ccc([C@H]2CC[C@H](C#N)CC2)cc1-c1ccc(N2CCC2)nc1CN1C(=O)O[C@H](c2cc(C)cc(C)c2)[C@@H]1C
GROUP_LABEL: no (0)

SMILES_DATA: COc1cc(F)c([C@H]2C[C@H](C(=O)OC)C2)cc1-c1ccc(N2CCC2)nc1CN1C(=O)O[C@H](c2cc(C(F)(F)F)cc(C(F)(F)F)c2)[C@@H]1C
GROUP_LABEL: yes (1)
